Recorded EASY_mean for the following sequences
# systemName: photolabile unchained HLA-A*11:01 pMHC-I protein (Homo sapiens, UniProt P04439, A114D/D185E/E176A/F33Y/L180Q/S129P/T187R)
# runDescription: ELISA with photolabile unchained pMHC-I protein and UV irradiation
# Assay type: binding
# conditionDescription: ELISA signal, mean; […]

Record excerpt, results attached:
> print(dat)
   macromoleculesequence  measurementtype    result
1     GRAKLLGAE [LR1016]        EASY_mean  -0.02066
2  TSTVQLIMQLMP [TM1042]        EASY_mean  -0.04181
3   MQLMPFGCLLD [TM1038]        EASY_mean   -0.0584

Ask: # return recorded EASY_mean for input PVAIKTSPKAN [EX1017]
Reply: -0.01335

Ask: Retrieve EASY_mean measured for STVQLIMQLMP [TM1032] and print it.
Reply: -0.06602

Ask: Tell me measured EASY_mean for CLTSTVQLIMQ [TM1029] please.
Reply: -0.0718

Ask: Identify measured EASY_mean associated with VQLIMQLMPFGC [TM1045]
Reply: -0.05081

Ask: # return recorded EASY_mean for entry ICLTSTVQLIMQ [TM1039]
Reply: -0.09515

Ask: Input FGRAKLLGAE [LR1025] , output reported EASY_mean.
Reply: -0.01153

Ask: Kindly indicate its recorded EASY_mean. Item: FGRAKLLG [LR1006]
Reply: -0.01563
